# Read-out: Epidermal growth factor receptor (EGFR), EGFR (gene 1956)
# experiment: BSK_hDFCGF_EGFR: BioMAP Diversity Plus: hDFCGF Assay for Epidermal growth factor receptor (EGFR) Biomarker Activity (AID 2283057)
# condition: primary human foreskin fibroblasts; actives raise or lower the signal
Active and inactive are the calls of the source. Rule for the calls: active = hit-call score of the fitted dose curve at least 0.9, where 1 is the maximum; inactive = score below 0.9.
parameter: outcome

c1ccc2c(c1)ccc1ncccc12	inactive
c1ccc2c(c1)ccc1cc3c(ccc4ccccc43)cc12	inactive
CCCCC(CC)COC(=O)c1ccccc1O (stereo not drawn)	inactive

* * *

# experiment: ATG_TA_CIS: Attagene CIS-FACTORIAL HepG2 Assay for human TA Basal Promoter (AID 2282964)
# condition: HepG2 Attagene CIS-factorial TA basal promoter reporter; actives raise or lower the signal
Calls of active or inactive are those of the source. Rule for the calls: active = hit-call score of the fitted dose curve at least 0.9, where 1 is the maximum; inactive = score below 0.9.
// allowed return values: label 1 for active, label 0 for inactive

CCCCCCC1(C)CCC(=O)O1 (centres undefined)	label 0
CCCCC/C=C\C/C=C\CCCCCCCC(=O)OC	label 1
CCCCCCCCCCC=CC#N	label 0
Cc1cc(=O)n(-c2ccccc2)n1C	label 0
Cc1ccc(C(C)c2ccc(C)c(C)c2)cc1C	label 0
O=S(=O)(O)c1ccc2cc(O)c(S(=O)(=O)O)cc2c1	label 0
CC(=O)Nc1ccc2c(c1)Cc1cc(NC(C)=O)ccc1-2	label 0
C[C@]12CCC(=O)C=C1CC[C@@H]1[C@@H]2C(=O)C[C@@]2(C)[C@H]1CC[C@]2(O)C(=O)CO	label 0

Ask: Dear colleague, could you share the recorded outcome for O=c1cc[nH]c(=S)[nH]1 when you have a moment?
Reply: label 0

Ask: Dear colleague, could you share the recorded outcome for Cc1cc(O)c(Cl)c(C)c1Cl when you have a moment?
Reply: label 0

meta.source: PubChem BioAssay (EPA / NIEHS)
